A collection of molecules and their measured ALBUMIN
- Species: Rattus norvegicus
- protocol-details: DrugMatrix - Regimen: Daily Repeat
- Format: toxicity, organism-based, Sprague-Dawley
- Set-up: regimen Daily Repeat, gender Male, age 6-8 weeks
- condition-label: in vivo, po, 0 mg/kg, 120 h, tissue Plasma, route oral GAVAGE, dose level Control, time 5 day, vehicle .5 % CMC
State just the number; it will be interpreted in G/DL.

CC(C)Cc1ccc([C@H](C)C(=O)O)cc1    3.77

Problem: Look up ALBUMIN: Cl.NC[C@H]1CC[C@H](C(=O)Oc2ccc(CCC(=O)O)cc2)CC1 [CETRAXATE HYDROCHLORIDE]
Result: 4.22

Problem: Param item: CCN1C[C@]2(COC)[C@H](O)C[C@H](OC)[C@@]34[C@@H]5C[C@@]6(O)[C@H](OC(=O)c7ccccc7)[C@@H]5[C@@](OC(C)=O)([C@@H]([C@H](OC)[C@H]23)[C@@H]14)[C@@H](O)[C@@H]6OC
Result: 3.72

Problem: Param item: O=C(O)CCc1nc(-c2ccccc2)c(-c2ccccc2)o1
Result: 4.22

Problem: Param item: CN(C)CCOC(c1ccccc1)c1ccccc1.Cn1c(=O)c2[nH]c(Cl)nc2n(C)c1=O [DIMENHYDRINATE]
Result: 4.32

Values compiled from ChEMBL document CHEMBL3885881.
